Taken from ChEMBL document CHEMBL1147771.

Tested on: Escherichia coli
Assay: Antibacterial activity against Escherichia coli UBMS 88-1 carrying tetB-resistant determinant
Assay type: functional
# key: entry, value: MIC
Write down the numeric answer in µg/mL and omit the unit.

{"Compound": "CN(C)c1cc(NS(=O)(=O)c2cccs2)c(O)c2c1CC1CC3[C@H](N(C)C)C(=O)C(C(N)=O)=C(O)[C@@]3(O)C(=O)C1=C2O (stereo partly specified)", "Quantitative readout": 32}
{"Compound": "CN(C)CC(=O)Nc1cc(N(C)C)c2c(c1O)C(=O)C1=C(O)[C@]3(O)C(O)=C(C(N)=O)C(=O)[C@@H](N(C)C)C3CC1C2 (stereo partly specified)", "Quantitative readout": 0.25}

For the next question, use this compound.
Entry under review: CN(C)c1cc(NC(=O)CNC(C)(C)C)c(O)c2c1C[C@H]1C[C@H]3[C@H](N(C)C)C(O)=C(C(N)=O)C(=O)[C@@]3(O)C(O)=C1C2=O [TIGECYCLINE] . Reported MIC?
0.5

---

System: Escherichia coli
Test: Antibacterial activity against Escherichia coli UBMS 88-1 carrying tetB-resistant determinant
Assay type: functional
Quantity kind: MIC

{"Molecule": "CN(C)c1cc(NC(=O)c2cccs2)c(O)c2c1CC1CC3[C@H](N(C)C)C(=O)C(C(N)=O)=C(O)[C@@]3(O)C(=O)C1=C2O (stereo partly drawn)", "MIC": "> 32 µg/mL"}
{"Molecule": "CN(C)c1cc(NS(=O)(=O)c2ccc(Cl)cc2)c(O)c2c1CC1CC3[C@H](N(C)C)C(=O)C(C(N)=O)=C(O)[C@@]3(O)C(=O)C1=C2O (stereo partly drawn)", "MIC": "> 32 µg/mL"}

For the next question, use this molecule.
Value wanted: MIC (Escherichia coli) of entry CC(=O)Nc1nc(C)c(S(=O)(=O)Nc2cc(N(C)C)c3c(c2O)C(O)=C2C(=O)[C@]4(O)C(O)=C(C(N)=O)C(=O)[C@@H](N(C)C)C4CC2C3)s1 (stereo partly drawn)
> 32 µg/mL
